- protocol.text: Inhibition of SREBP2 activation expressed in CHO-K1 cells co-transfected with pSRE-Luc plasmid assessed as inhibition of luciferase expression after 20 hrs by luciferase reporter gene assay
pIC50: −log10 of the molar value.
Please enter true (1) where pIC50 is greater than or equal to 5, and false (0) where it is lower.

These solved cases illustrate the format of a correct answer.
[
  {
    "molecule": "CCCc1cc(-c2nc(-c3cccs3)cs2)ccn1",
    "label.class": "false (0)"
  },
  {
    "molecule": "CCc1cc(-c2nc(-c3ccc(C)cc3)cs2)ccn1",
    "label.class": "true (1)"
  },
  {
    "molecule": "Cc1ccc(-c2csc(-c3ccncc3)n2)cc1",
    "label.class": "false (0)"
  },
  {
    "molecule": "CCCc1cc(-c2nc(-c3ccc(NS(C)(=O)=O)cc3)cs2)ccn1",
    "label.class": "true (1)"
  },
  {
    "molecule": "CCCc1cc(-c2nc(-c3ccc(NS(=O)(=O)c4ccc(C)cc4)cc3)cs2)ccn1",
    "label.class": "true (1)"
  },
  {
    "molecule": "CCCc1cc(-c2nc(-c3ccc(NC(C)C)cc3)cs2)ccn1",
    "label.class": "true (1)"
  }
]

query: Quick check: does "CCCc1cc(-c2nc(-c3ccc(NC(C)=O)cc3)cs2)ccn1" have pIC50 greater than or equal to 5?
result: true (1)

query: Quick check: does "CCCc1cc(-c2nc(-c3ccc(NS(=O)(=O)c4cccs4)cc3)cs2)ccn1" have pIC50 greater than or equal to 5?
result: true (1)

query: Quick check: does "CCCc1cc(-c2nc(-c3ccccc3)cs2)ccn1" have pIC50 greater than or equal to 5?
result: false (0)

query: Quick check: does "CCCc1cc(-c2nc(-c3ccccc3OC)cs2)ccn1" have pIC50 greater than or equal to 5?
result: true (1)

query: Quick check: does "Cc1ccc(-c2csc(-c3ccccc3)n2)cc1" have pIC50 greater than or equal to 5?
result: false (0)

query: Quick check: does "CCCc1cc(-c2nc(-c3ccccc3O)cs2)ccn1" have pIC50 greater than or equal to 5?
result: false (0)

* * *

- protocol.text: Inhibition of SREBP2 activation expressed in CHO-K1 cells co-transfected with pSRE-Luc plasmid assessed as inhibition of luciferase expression after 20 hrs by luciferase reporter gene assay
property.label: pIC50
Please note pIC50 is a logarithmic value: minus log10 of concentration in mol/L. Answer with that number alone.

Example cases with answers are listed next.
[
  {
    "compound": "CCCc1cc(-c2nc(-c3ccc(OC)cc3)cs2)ccn1",
    "observed": 4.89
  },
  {
    "compound": "CCCc1cc(-c2nc(-c3cccc(O)c3)cs2)ccn1",
    "observed": 5.02
  }
]

Consider now this further compound.
response.value for "CCCc1cc(-c2nc(-c3ccc(OC(=O)c4ccccc4)cc3)cs2)ccn1" (field: pIC50) = 5.11

* * *

- protocol.text: Inhibition of SREBP2 activation expressed in CHO-K1 cells co-transfected with pSRE-Luc plasmid assessed as inhibition of luciferase expression after 20 hrs by luciferase reporter gene assay
property.label: pIC50
Please note pIC50 is a logarithmic value: minus log10 of concentration in mol/L. Answer with that number alone.

Example cases with answers are listed next.
[
  {
    "compound": "CCCc1cc(-c2nc(-c3ccc(Cl)cc3)cs2)ccn1 [SMR000177579]",
    "property.label": "pIC50",
    "observed": 4.97
  },
  {
    "compound": "CCCc1cc(-c2nc(-c3ccc(Br)cc3)cs2)ccn1",
    "property.label": "pIC50",
    "observed": 5.01
  },
  {
    "compound": "CCCc1cc(-c2nc(-c3ccc(F)cc3)cs2)ccn1",
    "property.label": "pIC50",
    "observed": 4.91
  },
  {
    "compound": "CCCc1cc(-c2nc(-c3ccc(O)cc3)cs2)ccn1",
    "property.label": "pIC50",
    "observed": 5.02
  }
]

response.value for CCCc1cc(-c2nc(-c3ccc(C)cc3)cs2)ccn1 [SMR000221636] (field: pIC50) = 5.25

response.value for "CCCc1cc(-c2nc(-c3ccc(NCc4ccccc4)cc3)cs2)ccn1" (field: pIC50) = 5.52

response.value for "CCCc1cc(-c2nc(-c3ccc(N)cc3)cs2)ccn1" (field: pIC50) = 5.07

* * *

- protocol.text: Inhibition of SREBP2 activation expressed in CHO-K1 cells co-transfected with pSRE-Luc plasmid assessed as inhibition of luciferase expression after 20 hrs by luciferase reporter gene assay
property.label: IC50

[
  {
    "compound": "CCCc1cc(-c2nc(-c3ccc(NC(=O)OC(C)(C)C)cc3)cs2)ccn1",
    "observed": "1.9 µM"
  }
]

response.value for "CCCc1cc(-c2nc(-c3ccc(NCC4CC4)cc3)cs2)ccn1" (field: IC50) = 4.9 µM

response.value for "C[C@H](CCCC(C)(C)O)[C@H]1CC[C@H]2[C@@H]3CC=C4C[C@@H](O)CC[C@]4(C)[C@H]3CC[C@]12C" (field: IC50) = 0.3 µM

response.value for "CCCc1cc(-c2nc(-c3cccc(OC)c3)cs2)ccn1" (field: IC50) = 10.2 µM
